These measurements were taken from the supplement of paper PMC9170038.

System: MS2 coat protein
assay protocol: apparent KD of MS2 coat protein; designed switch direction (-1 OFF switch, 1 ON switch): -1; higher = weaker reporter binding
run conditions: Eterna round: R95; input ligand: none
# label = Y if apparent KD of MS2 coat protein >= 50 nM else N

Determine whether measured apparent KD of MS2 coat protein meets or exceeds 50 nM for GGUUGGCGAGGAUAUACAUGAGGAUCACCCAUGUGAGAGAAUAAAGUGAGAAAGAAAAGUAGAAGGCGCUGACA [Mat - Exclusion 3 - Mod of Salish D51] (puzzle: Exclusion 3)
Y

Say whether AGUACUGACACGUUGGUGUUAGUACCAUAAGCUUGUGAUACAUGAGGAUCACCCAUGUCCUCAUAAGCUCGUCUUAU [salish99_TOv2_r2_096] (puzzle: Sensor v3, turn-off variant 2) shows apparent KD of MS2 coat protein of 50 nM or more.
N

Exam item: decide whether the reported apparent KD of MS2 coat protein for GGAAAGGUAGGAUAUACGAAAAAAAAGGGUAGAAAAAAAACACAUGAGGAUCACCCAUGUAGAAGGACCAAAAG [salish99_ex2_r3_036] (puzzle: Exclusion 2) is at least 50 nM.
N

Has AUAGAGUCAGGAUAUACAGGUGGAGGAGAGCAGCGUAAGGAGUAGAAGGGACAUGAGGAUCACCCAUGUAAGUG [JR_Exclu4_Sub060] (puzzle: Exclusion 4) a recorded apparent KD of MS2 coat protein greater than or equal to 50 nM?
Y

Please tell me: is the sequence GUGGUGGGUUUUCCGAGUAACAUGAGGAUCACCCAUGUAGAAGUUGAAGGUAUCAAGCGAAUGGCUCGUCAAAUGUG [JR_SV3TOV1_Sub047] (puzzle: Sensor v3, turn-off variant 1) at or over 50 nM in terms of apparent KD of MS2 coat protein?
N

---

System: MS2 coat protein
assay protocol: apparent KD of MS2 coat protein; designed switch direction (-1 OFF switch, 1 ON switch): 1; higher = weaker reporter binding
run conditions: input ligand: FMN 200 uM
reported metric: apparent KD of MS2 coat protein
// return the numeric value with its unit appended

Value of apparent KD of MS2 coat protein reported for the sequence CGGACUCCCUUAGGAUAUGGGAAAGGAAGUGUACCAGAAGGAAGGGUUCCGAUCCUCCAACAUGAGGAUCACCCAUGUAUGAGG [PowerStrip SSNG 1.3] (Eterna round: R96, puzzle: Same State NG 1) is 16.3 nM

// sample GCUAGGAUAUGACGAGGAUCACCCGUUAGAAGGAGCGAAGGCUAGGAUAUGACGAGGAUCACCCGUUAGAAGGAGCUGUACUCU [pwkr ssNG3 DX 2xF5 +2xFMN.10] (Eterna round: R96, puzzle: Same State NG 3) , its apparent KD of MS2 coat protein was 188 nM

// apparent KD of MS2 coat protein value for GCCGCGUUUCGCGCCUACAUGAGGAUCACCCAUGUUUGUAGGCAGGAUAUCGUUUGCUUUGCGGGCGAGAAGGGCUGUUGUGGC [salish99_SSNG3_R04_017] (Eterna round: R96, puzzle: Same State NG 3) : 35 nM

Notebook: GCUGGAAACCACAUGAGGAUCACCCAUGUUCCGGAAACGGCACAGGAUAUCUGUCCGAAAAGGUCAGAGAAGGGUGAAACCAGC [Fiskers NG3ss - 83] (Eterna round: R96, puzzle: Same State NG 3) , apparent KD of MS2 coat protein read as 263 nM

For reference, reported apparent KD of MS2 coat protein for AAAAAACAUGAGGAUCACCCAUGUCAAAAGACGUGAGGAUAUGUACAGACUUCGGUCUGUACAGAAGGCACGAAAA [SS1 - 1037] (Eterna round: R96, puzzle: Same State 1) stands at 17.6 nM

apparent KD of MS2 coat protein recorded for this sequence, GCUACCAAAGAAGCCAACAUGAGGAUCACCCAUGUAUGUUGGCAGGAUAUCGAUUGCAAAGCGAUCGAGAAGGGCUAAGGUAGC [Mat - Same State NG 3 - JL Mod - D88] (Eterna round: R96, puzzle: Same State NG 3) , is 147 nM

Input UUGGUUCUCGUAGGAUAUGUAGGAUAUUCCUACAUGAGGAUCACCCAUGUUCGCAUGGAAGAAGGACAGAAGGACGAUCACCAU [pwkr ssNG2 2FMN + 1F5.18] (Eterna round: R96, puzzle: Same State NG 2) . Output apparent KD of MS2 coat protein: 54.8 nM

Briefly, apparent KD of MS2 coat protein measured for AUAUGAGAAGCAGGAUAUGUGGAGAAGAAAGAAACAGAAGGGCUUAUGGGACAACAUGAGGAUCACCCAUGUUCUCUGUGAUGA [AK SSNG1-V2-2.1] (Eterna round: R96, puzzle: Same State NG 1) : 42.8 nM

Recorded apparent KD of MS2 coat protein (sequence GGUAUUGACACAGGAUAUGCUUACGAAACGUAAGCAGAAGGGUGAACAUGAGGAUCACCCAUGUAGGUACCAGGGCGUGAGCCC [JL SSNG1 1.75] (Eterna round: R96, puzzle: Same State NG 1) ): 151 nM

---

System: MS2 coat protein
assay protocol: apparent KD of MS2 coat protein; higher = weaker reporter binding
run conditions: Eterna round: R107; input ligand: arginine 13.2 mM
Classify by measured apparent KD of MS2 coat protein: Yes if it is equal to or exceeds 20 nM, No if it is smaller.

Say whether AUCGUACCUGAUGAUACCAGCAUGUGAUCAUAACAUGAGGAUCACCCAUGUAAUCAGUGAUGCCCUUGGCAGCAUGAUCGGUACA [Same State - Theophylline B (Freestyle 13)] shows apparent KD of MS2 coat protein of 20 nM or more.
Yes

Does GGCGCGCGCCAACAUGAGGAUCACCCAUGUCGAGGACCGGUACGGCCGCCACUCGAACGAGUGAAGCGCGCGCGCGGGCGACCGC [Saa] have a reported apparent KD of MS2 coat protein of at least 20 nM?
Yes

Please tell me: is the sequence AUGCCUAGUGGAAGGAGCGAGGGUCUUCCCAACAUGAGGAUCACCCAUGUUCUUUUACACCCUCAGGUAGGUCGCCAUUGGGACA [Tilexete] at or over 20 nM in terms of apparent KD of MS2 coat protein?
Yes

Quick check: does CUGACAUGAGGAUCACCCAUGUACACUGAAGGAGCGUCGAGAAUGACAGGUAGGUCGCAGAAUAAUAAUGGUGAUGUUUAGGUAA [Exclusion Arginine A GF 2] have apparent KD of MS2 coat protein greater than or equal to 20 nM?
Yes

Evaluate GUGUCCUAGUCGGCCGCCACUGGUACGAAUACCUUCACCCGUGUGCACAUGAGGAUCACCCAUGUCAGGACCGGGACUAGGGUGU [SSTryp B #24] : apparent KD of MS2 coat protein at minimum 20 nM?
No

---

Please go through the items and note down their apparent KD of K4 kissing-loop reporter.
Tested on: K4 kissing-loop RNA reporter;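 also: bound reporter read as fluorescence of individual clusters on recovered sequencing chips by microscopy, with normalized cluster intensities fitted with a binding model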
assay protocol: apparent KD of K4 kissing-loop reporter; higher = weaker reporter binding
run conditions: Eterna round: R107; input ligand: arginine 13.2 mM
The reply must contain the numeric value and, after it, the unit.

GET /value?item= UGACUGGACUGAAGGAGCGCGCGAGACAAAGUCUCGAACUCUUAGUGAUGUUAAGAAAUAACGCAGGUAGGUCGCAGUCUAGUCU &field=apparent KD of K4 kissing-loop reporter returns 122 nM

// recorded apparent KD of K4 kissing-loop reporter for UGAUACCAGGCGGCCGCCACUCCUGCAGGUCAAAGACCUGUGAAGCUGGUUCUCCAGUGAUGUUGGAGGACCGGGCCUGGUAUCU [FiskerMod 27 - Jieux - Exclusion - Tryptophan B] : 176 nM

GCGCCGGUCUGCUUUAGAGUGAUGUUCUCCCGAGGACCGGUACGGCCGCCACUCGGCCAACGCUAUUAUCUUUGAUCCGCGGUGC [theeternabot_exclusion_KL_Trp_A_41] yielded apparent KD of K4 kissing-loop reporter of 840 nM

---

For each entry below, report its apparent KD of MS2 coat protein value.
Tested on: MS2 coat protein
assay protocol: apparent KD of MS2 coat protein; designed switch direction (-1 OFF switch, 1 ON switch): 1; higher = weaker reporter binding
run conditions: Eterna round: R95; input ligand: none
Entry rule: numbers only, all in nM.

# apparent KD of MS2 coat protein (sequence: AUGGUGCAGGUACAGGAUAUGUUGCUCGUAACAUGAGGAUCACCCAUGUACCUAUGAGAAUAAAUGCAGAAGGGUGCACACCACG [Mat - Same State 2 - Mod of UCT - D92] (puzzle: Same State 2) ) is 156

Measured apparent KD of MS2 coat protein of GCAGUACAUGAGGAUCACCCAUGUCUCUAAAGUCGAGGAUAUGGGCAGGUUAUAUCCGAACCAGAAGGCGAACUGC [SS1 Teenbexe 11] (puzzle: Same State 1) : 527

Recorded apparent KD of MS2 coat protein (sequence AGUAUACAUGAGGAUCACCCAUGUCAACGUAGUCGAGGAUAUGGGCAGCCGUGAGGCGUACCAGAAGGCGAAGAGA [Mat - Same State 1 - Mod of JL - D5] (puzzle: Same State 1) ): 68.6

The recorded apparent KD of MS2 coat protein for GGUCCAGCCUGAGCUGGACCGAAGCGUGUACAUGAGGAUCACCCAUGUCAUGUACAGGCUUUUUGCUCGUCUUAUUG [JL-shm-2.11 JL Mod] (puzzle: Sensor for hsa-mir-208a) is 72.9

Entry under test: GAGUGACAUGAGGAUCACCCAUGUAGAAUAGAACAAGGAUAUGUGGAAGGCGGAGGAGAGACAGAAGGUGUUGAGG [JR_SS1_Sub058] (puzzle: Same State 1) . Its apparent KD of MS2 coat protein was 119
